- Tested on: HEK-293T
- MEASUREMENT DESCRIPTION: Multiplex assay against HEK293T
- Format: toxicity, cell-based
- STUDY CONDITIONS: human, 12 h, 10 µM, compound concentration 10 uM, replicate 2
ATTRIBUTE MEASURED: Population Apoptotic (%)
Give bare numbers, in %.

Examples with their reported Population Apoptotic (%) follow.
>>> measured_result("CNC(=O)c1cc(Oc2ccc(NC(=O)Nc3cc(C(C)(C)C)nn3-c3ccc4ncccc4c3)c(F)c2)ccn1 [REBASTINIB]")
35
>>> measured_result("CCn1c(-c2nonc2N)nc2cnc(Oc3cccc(NC(=O)c4ccc(OCCN5CCOCC5)cc4)c3)cc21 [GSK-269962A]")
54

Batch request: Population Apoptotic (%) per item, same order as input.
1. CN(C)C/C=C/C(=O)Nc1cc2c(Nc3ccc(F)c(Cl)c3)ncnc2cc1O[C@H]1CCOC1.O=C(O)/C=C\C(=O)O.O=C(O)/C=C\C(=O)O [AFATINIB DIMALEATE]
2. CCc1cc2c(cc1CC)CC(NC[C@H](O)c1ccc(O)c3[nH]c(=O)ccc13)C2 [INDACATEROL]
3. COc1cc2c(NC3CCN(C(C)C)CC3)nc(N3CCC(F)(F)CC3)nc2cc1OCCCN1CCCC1
4. CC(=O)c1cc(-c2cc(C(=O)NC3CC3)ccc2C)c2ncccn12
5. Cc1cc2c(cc1N1C(=O)c3cccc4c(CCCO)ccc(c34)C1=O)n(C)c(=O)n2C
6. Nc1nc2c(c(N3CCNCC3)n1)CCC1=C2[C@@H]2CCCC[C@@H]2O1

1: 17; 2: 82; 3: 92; 4: 22; 5: 38; 6: 58

====

- Tested on: HEK-293T
- MEASUREMENT DESCRIPTION: Incucyte cell viability with HEK293T; note: filed as whole numbers so only -1 and 0 and 1 occur
- Assay type: toxicity, cell-based
- STUDY CONDITIONS: human, 12 h, 10 µM, compound concentration 10 uM, replicate number 1, timepoint 12 hours
ATTRIBUTE MEASURED: Growth Rate

Examples with their reported Growth Rate follow.
>>> measured_result("CS(=O)(=O)c1cc(C2(NC(=O)c3cncc4c3cnn4-c3ccc(F)cc3)CC2)ccn1")
1
>>> measured_result("CCN1CCN(Cc2ccc(NC(=O)c3ccc(C)c(Oc4ccnc5[nH]ccc45)c3)cc2C(F)(F)F)CC1.Cl.Cl.Cl.O")
0
>>> measured_result("CC(C)(C)c1cnc(CSc2cnc(NC(=O)C3CCNCC3)s2)o1")
0
>>> measured_result("CN(C)C(=O)c1ccc(-c2cc(C(=O)N(C)C3CCCC3)no2)cc1O")
0
>>> measured_result("O=C(NCc1ccc(F)cc1)C1CCN(S(=O)(=O)c2cc(Cl)cc(Cl)c2)CC1")
1
>>> measured_result("CCCCN(CCCC)C(=O)CN1C[C@@H](c2ccc3c(c2)OCO3)[C@H](C(=O)O)[C@H]1c1ccc(OC)cc1")
1
>>> measured_result("Nc1nc2c(c(N3CCNCC3)n1)CCC1=C2[C@@H]2CCCC[C@@H]2O1")
1
>>> measured_result("C[C@H]1CCCN1Cc1nc2cc(NC(=O)c3ccc4cnccc4c3)ccc2[nH]1")
0

Proceed to the following item.
response.value for "FC(F)(F)c1c(N2CCC(c3ccccc3)CC2)ccn2c(CC3CC3)nnc12" (field: Growth Rate) = 0
